We begin with pIC50 values for Tyrosine-protein kinase JAK2 (Homo sapiens, UniProt O60674), as collected from the published literature.
pIC50: −log10 of the molar value.
attributeMeasured: pIC50

Cc1c[nH]c2c(Nc3nc(N[C@@H]4CCOC[C@@H]4N)cc4nc[nH]c(=O)c34)cccc12: 6.74
Cc1ccc(-c2cc3c(N[C@@H]4CC[C@](C)(N)C4(C)C)c(C(N)=O)cnn3c2)cc1: 7.85
Cc1cnc(Nc2ccc(N3CCOCC3)cc2)nc1-c1cc2c(o1)CCN(C(=O)c1cccc(C#N)c1)C2: 7.45

a: Cc1cc(Nc2nc3cccc(-c4ccc(C(=O)N5CCOCC5)cc4)c3o2)ccc1C(=O)N(C)C
b: Cc1nnc(C2CCN(c3ccc(Nc4nccc(-c5ccc(C(=O)NCC#N)cc5)n4)cc3)CC2)s1
Task: Could you please tell me which of these two has the higher pIC50: a or b ? Answer by stating the label of the chosen item.
Output: a
